// data source = paper PMC3991565

Molecular target: human mGlu1 receptor (Homo sapiens, UniProt Q13255)
Sequence (Q13255 581-860): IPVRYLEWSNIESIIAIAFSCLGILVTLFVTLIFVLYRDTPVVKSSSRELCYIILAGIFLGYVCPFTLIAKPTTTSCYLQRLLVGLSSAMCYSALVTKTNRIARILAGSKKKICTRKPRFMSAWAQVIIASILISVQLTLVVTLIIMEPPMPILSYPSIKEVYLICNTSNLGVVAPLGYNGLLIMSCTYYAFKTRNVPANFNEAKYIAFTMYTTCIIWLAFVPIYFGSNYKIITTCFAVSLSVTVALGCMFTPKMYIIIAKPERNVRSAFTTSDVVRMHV

- compound string: "CC(C)Nc1cc(-c2csc(N(C)C(=O)c3ccc(F)cc3)n2)ncn1"
  Ki, nM: 2.5
